Where do the numbers come from? From paper PMC3138255.

systemTested: T1, Rnd2 GTPase (residues 1-227), loaded with GMPPNP (UniProt P52198 1-227)
T1 sequence (looked up): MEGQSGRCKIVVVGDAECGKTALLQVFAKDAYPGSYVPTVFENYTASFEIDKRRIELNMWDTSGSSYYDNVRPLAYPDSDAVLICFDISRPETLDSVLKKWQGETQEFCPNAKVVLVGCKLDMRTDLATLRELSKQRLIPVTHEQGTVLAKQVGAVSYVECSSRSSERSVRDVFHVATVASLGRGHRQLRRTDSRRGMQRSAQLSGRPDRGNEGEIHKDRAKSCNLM
experimentNotes: ITC
assayMetric: Ka (M⁻¹)

A selection of reference data follows.
plexin-D1 RBD Y1618L (domain or fragment) AKPRNLNVSFQGCGMDSLSVRAMDTDTLTQVKEKILEAFCKNVPYSQWPRAEDVDLEWFASSTQSLILRDLDDTSVVEDGRKKLNTLAHYKIPEGASLAMSLIDKKDNTLGRVKDLDTEKYFHLVL :: 70000
plexin-D1 Rho GTPase binding domain (RBD), residues 1553-1678 (domain or fragment, human, UniProt Q9Y4D7 1553-1678, looked up) AKPRNLNVSFQGCGMDSLSVRAMDTDTLTQVKEKILEAFCKNVPYSQWPRAEDVDLEWFASSTQSYILRDLDDTSVVEDGRKKLNTLAHYKIPEGASLAMSLIDKKDNTLGRVKDLDTEKYFHLVL :: 60000

a. plexin-B1 RBD L1815K (domain or fragment) YRPLTLNALLAVGPGAGEAQGVPVKVLDCDTISQAKEKMLDQLYKGVPLTQRPDPRTLDVEWRSGVAGHKILSDEDVTSEVQGLWRRLNTLQHYKVPDGATVALVPC
b. plexin-C1 RBD T1264V/R1265V (domain or fragment) TVALNVVFEKIPENESADVCRNISVNVLDCDTIGQAKEKIFQAFLSKNGSPYGLQLNEIGLELQMGVVQKELLDIDSSSVILEDGITKLNTIGHYEISNGSTIKVFKK
# input Looking at a and b , which one comes out lower in Ka terms? Answer format: the label of the selected item.
# output a
